Just for reference, ChEMBL document CHEMBL1201862 is where these values come from.

Test system: SK-MEL-2
test: NCI tumour cell line growth inhibition, 48 h
Activity calls are given as the source filed them. No stated cut-off is given here; in the data, active = GI50 up to about 1.1 µM and inactive = higher.
Could you please pick one outcome from this set? label 1 for active, label 0 for inactive

Please review the entries below; each comes with its answer.
compound | discreteLabel
O=C1COc2ccc([N+](=O)[O-])cc2C(=O)C1 | label 0
C#CCOc1c(C(=O)OCC)c(=O)n(C)c2ccccc12 | label 0
COc1cccc(/C=C2\N=C(c3ccccc3)OC2=O)c1 | label 0
O=C1c2cc3c(cc2CC12Cc1cc4c(cc1C2=O)CCC4)CCCC3 (stereo not drawn) | label 0
Nc1nc(=O)[nH][nH]1 | label 0

I'd appreciate the recorded outcome for Cn1c(=O)cc(NCc2ccc(Cl)cc2)[nH]c1=O from this test.
label 0

Could you do the same for CN(C)c1ccc(C(=O)NCCCCCCC(=O)NO)cc1 , please?
label 1

Could you do the same for CCOC(=O)C(=CNC(Cc1c[nH]c2ccccc12)C(=O)OC)C(=O)OCC (stereo not drawn) , please?
label 0

----------
Tested on: SNB-19
test: NCI tumour cell line growth inhibition, 48 h
Calls of active or inactive are those of the source. Cut-off read from the data, not from the text of the source: active = GI50 up to about 1.1 µM and inactive = higher.
Listed molecules paired with reported GI50

Use these answered entries as a reference point.
molecule | targetUnderTest | GI50
O=S(=O)(O)c1ccc(-c2c3nc(c(-c4ccc(S(=O)(=O)O)cc4)c4ccc([nH]4)c(-c4ccc(S(=O)(=O)O)cc4)c4nc(c(-c5ccc(S(=O)(=O)O)cc5)c5ccc2[nH]5)C=C4)C=C3)cc1 | SNB-19 | 65.9 µM (inactive)
C=C1C(=O)C23CC1CCC2C12CO[C@@H]4OCC(C)(CC[C@@H]1OC3=O)C42 (stereo partly specified) | SNB-19 | 8 µM (inactive)
O=C1/C(=C\c2ccc(Cl)cc2Cl)Sc2scc(-c3cccc([N+](=O)[O-])c3)[n+]21 | SNB-19 | 12.8 µM (inactive)
CS(=O)(=O)Nc1ccc(NCc2c[nH]c3ccc4ncccc4c23)cc1 | SNB-19 | 49.1 µM (inactive)
O=C(CN1CCN(c2ccccn2)CC1)N1CCCn2c1nc1ccccc1c2=O | SNB-19 | > 100 µM (inactive)
N=C(N)C(/N=N\c1ccccc1)C(N)=O (stereo unspecified) | SNB-19 | > 100 µM (inactive)

API: value(readout=GI50, system=SNB-19) for record CC(C)CN(CC#N)CC(C)C
> 100 µM (inactive)

Could you do the same for CN(CCCN(C)Cc1ccc(Cl)c(Cl)c1)CCN1CCCC1 , please?
22.5 µM (inactive)

Could you do the same for COC(=O)/C=C\C(C#N)(C#N)/N=C/c1ccc(OC)cc1 , please?
> 44.7 µM (inactive)

Could you do the same for COc1cccc(/C=C2\N=C(c3ccccc3)OC2=O)c1 , please?
35.1 µM (inactive)

Could you do the same for Cc1ccc(S(=O)(=O)NC2C(=O)c3ccccc3C(=O)C2n2cnc3ccccc32)cc1 (stereo unspecified) , please?
27.4 µM (inactive)

----------
Listed compounds paired with reported GI50
System: UACC-257
test: NCI tumour cell line growth inhibition, 48 h
Active and inactive are the calls of the source. Rule as the data show it: active = GI50 up to about 1.1 µM and inactive = higher.

Use these answered entries as a reference point.
compound | GI50
O=C(O)[C@@H]1CCS(=O)(=O)N1 | > 100 µM (inactive)
C1=CC2=CC=CC3c4nc5ccc6ccccc6c5nc4C(=C1)C23 (configuration not stated) | > 100 µM (inactive)
COc1ccc(-c2cc(=O)c3cc(C)c(C)c(C(=O)O)c3o2)cc1 | > 100 µM (inactive)

Returns the measured GI50 for the input compound. Input: C/C(=N\c1ccc(Cl)cc1)c1ccncc1
22.6 µM (inactive)

Could you do the same for OCC(O)COc1c(Cl)cc(Cl)cc1Cl (configuration not stated) , please?
> 100 µM (inactive)

Could you do the same for C#CCCOC(=O)CC1=C(C)/C(=C/c2ccc([S+](C)[O-])cc2)c2ccc(F)cc21 (configuration not stated) , please?
15.7 µM (inactive)

Could you do the same for Brc1c2nc3ccccc3nc2n2ccc3ccccc3c12 , please?
> 100 µM (inactive)

Could you do the same for CCOC(=O)/C(C(N)=O)=C(/O)c1cnccn1 , please?
> 100 µM (inactive)

Could you do the same for Nc1ccc([As](=O)(O)O)cc1 , please?
> 100 µM (inactive)

Could you do the same for O=C(O)CC12C3C4C5C3C1C5C42 (configuration not stated) , please?
> 100 µM (inactive)

Could you do the same for OC(c1ccc(Cl)cc1)(c1ccc(Cl)cc1)c1cncnc1 , please?
19.2 µM (inactive)

Could you do the same for Cc1cc2c(cc1Cl)SC(NNc1ccc([N+](=O)[O-])cc1)=NS2(=O)=O , please?
> 10 µM (inactive)

----------
Tested on: SK-MEL-28
test: NCI tumour cell line growth inhibition, 48 h
Counter-ions that a name gives are not always drawn. The source made the active and inactive calls. Rule as the data show it: active = GI50 up to about 1.1 µM and inactive = higher.
Listed compounds paired with reported GI50

Use these answered entries as a reference point.
compound | readout | endpointResult
O=C(CC(=O)N(C(=O)c1ccccc1)c1ccc(Cl)cc1)N/N=C\c1ccccc1O | GI50 | > 100 µM (inactive)
O=C(N/N=C/c1cccc(F)c1)c1ccncc1 | GI50 | > 100 µM (inactive)
COc1cc(/C=C/C(=O)N[C@@H]2C(=O)N3[C@@H]2SC(C)(C)[C@@H]3C(=O)O)ccc1O | GI50 | > 100 µM (inactive)
CCCCN/C(=N\C#N)N(Cc1ccccc1)Cc1ccccc1 | GI50 | 34.2 µM (inactive)
CN1C[C@H](C(=O)N[C@]2(C)O[C@@]3(O)[C@@H]4CCCN4C(=O)[C@H](Cc4ccccc4)N3C2=O)C=C2c3cccc4[nH]cc(c34)C[C@H]21 [ERGOTAMINE TARTRATE] | GI50 | 17.1 µM (inactive)
c1cc2c(cc1C1OCC3C(c4ccc5c(c4)OCO5)OCC13)OCO2 (centres undefined) | GI50 | 64.7 µM (inactive)
N#C/C(=C/c1ccc2c(c1)OCO2)C(=O)c1ccccc1 | GI50 | > 100 µM (inactive)
COc1cc(CCCOC(=O)/C=C/c2ccc(O)c(O)c2)cc(O)c1O | GI50 | 58.3 µM (inactive)

Moving on to the next compound.
Returns the measured GI50 for the input compound. Input: CC(C)(C)C1=Nc2c(Br)cc(C(C)(C)C)cc2C(C(F)(F)F)(C(F)(F)F)O1
32.7 µM (inactive)

----------
Tested on: IGROV-1
test: NCI tumour cell line growth inhibition, 48 h
Active and inactive are the calls of the source. Rule as the data show it: active = GI50 up to about 1.1 µM and inactive = higher.
Listed compounds paired with reported GI50

Use these answered entries as a reference point.
compound | targetUnderTest | GI50
Cc1ccc(S(=O)(=O)/N=C2/N(C)CCCS2(=O)=O)cc1 | IGROV-1 | > 100 µM (inactive)
O=C1CCCCCCCCCCC(=O)C2CCOCCOCCOCCC1Cc1cccc(n1)C2 | IGROV-1 | 90.4 µM (inactive)
C[n+]1c2ccccc2c(CNC(CCC(N)=O)C(=O)O)c2ccccc21 (stereo unspecified) | IGROV-1 | 4.15 µM (inactive)
N#CC(=C1CCN(CCCC(=O)c2ccc(F)cc2)CC1)c1ccccc1 | IGROV-1 | > 100 µM (inactive)

Returns the measured GI50 for the input compound. Input: CSc1nc(SC)c2c(CN=[N+]=[N-])c(Br)n(Cc3ccccc3)c2n1
> 100 µM (inactive)

Could you do the same for O=C1OC(c2ccccc2)=N/C1=C/N1CCCC1C(=O)O (stereo unspecified) , please?
> 100 µM (inactive)

Could you do the same for CC(=O)OC1COC(n2ccc3cc(Br)c([N+](=O)[O-])cc32)C(OC(C)=O)C1OC(C)=O (stereo unspecified) , please?
30.3 µM (inactive)

Could you do the same for COC(=O)/C=C/c1cc(OC)c2c(c1)C(C(=O)OC)C(c1ccc(OC)c(OC)c1)O2 (stereo unspecified) , please?
2.27 µM (inactive)

Could you do the same for CCOC(=O)Nc1sc2c(c1C#N)CCCC2 , please?
> 100 µM (inactive)

Could you do the same for CCSCC(N)C(=O)O (stereo unspecified) , please?
> 100 µM (inactive)

Could you do the same for COc1ccc(CCNC(=O)c2ccccc2C2c3ccc(OCc4ccccc4)cc3Oc3cc(OCc4ccccc4)ccc32)cc1OC , please?
> 100 µM (inactive)

----------
Test system: HL-60
test: NCI tumour cell line growth inhibition, 48 h
Calls of active or inactive are those of the source. No stated cut-off is given here; in the data, active = GI50 up to about 1.1 µM and inactive = higher.
Could you please pick one outcome from this set? true (1) (active), false (0) (inactive)

Please review the entries below; each comes with its answer.
compound | discreteLabel
CN(C)CCNC(=O)Cn1ccc(=O)c2ccc([N+](=O)[O-])cc21 | false (0)
COc1ncn(C2C=C(CO)C(O)C2O)c(=O)n1 (stereo unspecified) | false (0)
CN(C(=S)Cc1ccc(Cl)c(Cl)c1)C1CCCC[C@@H]1N1CCCC1 (stereo partly specified) | false (0)
Cc1ccc(S(=O)(=O)OCC/C(=C\[Si](C)(C)C)c2ccccc2)cc1 | false (0)

I'd appreciate the recorded outcome for COc1ccc(OC)c(C2Cc3cnc4nc(N)nc(N)c4c3C2)c1 (stereo unspecified) from this test.
false (0)

Could you do the same for CCNc1ncnc2c1nnn2CC , please?
false (0)

Could you do the same for CSc1nc(C)cc(Nc2ccc(O)c(CN3CCOCC3)c2)n1 , please?
false (0)

Could you do the same for CCCCN/C(=N\C#N)N(Cc1ccccc1)Cc1ccccc1 , please?
false (0)

Could you do the same for O=c1c2ccccc2n2nnc3ccc(NCCCNCCNCCCNc4ccc5nnn6c7ccccc7c(=O)c4c56)c1c32 , please?
true (1)

Could you do the same for COc1ccc2c(c1O)[C@@]13C=C(O)C(=O)C=C1[C@@H](C2)N(C)CC3 , please?
false (0)

Could you do the same for COC(=O)c1nn(C(=N)c2ccc(Cl)cc2)c2c1CCC2 , please?
false (0)
